test: Unbound intrinsic clearance in rat hepatocytes; type: ADME, cell-based, Hepatocyte
Parameter: log10 CL free. Scope: all listed entries.
// do not treat as linear: log10 of CL free, unit mL/min/kg

Check out these entries, answers already filled in.
Fill in the blank: the reported log10 CL free of O=C(Nc1ccc(F)cc1)C1(c2ccc(-c3ccc(C4CC4)nc3)cc2)COC1 is ____.
3.64

Fill in the blank: the reported log10 CL free of O=C(Nc1ccc(F)cc1)C1(c2ccc(-c3cnc(C(F)(F)F)cc3CO)cc2)CCC1 is ____.
3.22

Fill in the blank: the reported log10 CL free of O=C(Nc1ccc(C2(C(=O)Nc3ccc(F)cc3)COC2)cc1)c1cccc(Cl)c1 is ____.
2.40

Fill in the blank: the reported log10 CL free of CC(C)(O)c1cc(C(F)(F)F)ncc1-c1ccc(C2(C(=O)Nc3ccc(F)cc3)COC2)cc1 is ____.
1.08

Next:
Fill in the blank: the reported log10 CL free of Cc1cc(C2CC2)ncc1-c1ccc(C2(C(=O)Nc3ccc(F)cc3)COC2)cc1 is ____.
3.79

Fill in the blank: the reported log10 CL free of Cc1cc(C(F)(F)F)ncc1-c1ccc(C2(C(=O)Nc3ccc(F)cc3)COC2)cc1 is ____.
2.77

Fill in the blank: the reported log10 CL free of O=C(Nc1ccc(F)cc1)C1(c2ccc(-c3nc(C4CC4)no3)cc2)COC1 is ____.
2.99
